Record form. Attribute: growth. Fill in for each entry.
System: HCC-2998 colon
method.description: NCI-60 one-dose screen, 48 h (100 = growth as untreated, 0 = no growth, -100 = all killed)
condition.description: 10 µM unless noted
Compounds without any hit were thinned out: in the full panel of roughly 83,000, 20% have a hit. The source made the active and inactive calls. How the source made its calls: active means growth percent below 10; inactive means the rest.

Before answering, review these 4 worked examples.
structure | reported.value
COC(=O)c1ccc2c(c1)nc(-c1ccc(O)c(OC)c1)n2-c1cc(C(C)(C)C)[nH]n1 | 115% (inactive)
Cc1cc(C)n2nc(SCC(=O)Nc3sc4c(c3C(N)=O)CCC4)nc2n1 | 118% (inactive)
Clc1cccc(Cc2cn3cc(-c4ccccc4)nc3s2)c1 | 17.7% (inactive)
S=C(c1ccccc1)N1CCN(c2cccc(Cl)c2)CC1 | 105% (inactive)

Below: the item to evaluate.
Here O=C(Nc1ncc([N+](=O)[O-])s1)c1cccc([N+](=O)[O-])c1 was tested on HCC-2998 colon, and its growth came to 28.7% (inactive)

====

Tested on: A498 renal
method.description: NCI-60 one-dose screen, 48 h (100 = growth as untreated, 0 = no growth, -100 = all killed)
condition.description: 10 µM unless noted
This is part of a sample that, as a whole, favours compounds with a hit. Of some 83,000 tested, about 20% had one in any assay.
assay.endpoint: growth (%)
Numbers only, in %.

Before answering, review these 8 worked examples.
compound | growth / %
O=C1C2C3C=CC(O3)C2C(=O)N1Nc1ccccc1 (stereo unspecified) | 68.1
N#Cc1c(N2CCOCC2)nc2sc3cc(Cl)ccc3n2c1=N | 121
CCCCN(CCCC)CCCOC(=O)c1ccc(N)cc1 | 104
O=C1Nc2ccccc2C12Nc1cc(Cl)ccc1S2 (stereo unspecified) | 107
CN(CC(=O)N(Cc1ccc(C2CCCCC2)cc1)c1ccc(C(=O)O)cc1)S(=O)(=O)c1c(F)c(F)c(F)c(F)c1F | 93.4
Cc1cc(C(=O)O)c(C)cc1C(=O)O | 103
CCOc1ccccc1C(=O)OCC(=O)Nc1cccc(S(=O)(=O)N(C)C)c1 | 118
O=C(/C(=C/c1ccc([N+](=O)[O-])cc1)c1ccccc1)c1ccccc1 | 77

For every item in the list below, what is its measured growth?
1. Cc1ccc(C(C)C)cc1NC(=O)Nc1ccc([N+](=O)[O-])cc1
2. C[n+]1ccc(C#N)c2ccccc21
3. C=CCCCCCCCCC(=O)[O][Sn]([CH2]CCC)([CH2]CCC)[CH2]CCC

Outgoing:
7.54
95.3
-97.3

====

Test system: A549/ATCC NSCLC
method.description: NCI-60 one-dose screen, 48 h
condition.description: 10 µM unless noted
The panel holds about 83,000 compounds, 20% with a hit somewhere; the sample as a whole holds those more often. The source made the active and inactive calls. The calls were made as follows: active = growth percent below 10; inactive = the rest.
Would you mind answering with one of these outcomes? 1.0 (active), 0.0 (inactive)

compound | answer.label
O=C1NCC(Nc2ccc(Br)cc2Cl)C(=O)N1 (configuration not stated) | 0.0
COc1cc(Oc2cc(-c3cccnc3)ccc2NC(=O)Nc2ccc(F)cc2F)cc(OC)c1OC | 0.0
CCN(CC)CCOc1ccccc1-n1c(C)ccc1-c1ccccc1 | 0.0

Incoming: Recorded test call requested for COc1ccc2c3c(c(OCCCN(C)C)nc2c1)-c1ccc(Cl)cc1C3=O
Outgoing: 1.0

Incoming: Recorded test call requested for CC(=O)c1nc2ccccc2n1CCn1cc(CC(N)C(=O)O)c2ccccc21 (configuration not stated)
Outgoing: 0.0

Incoming: Recorded test call requested for CCCCCCCCCCC[C@@H](C[C@H]1OC(=O)[C@H]1CCCCCC)OC(=O)[C@@H](CC(C)C)NC=O
Outgoing: 0.0
